Reported IC50 values follow for various molecules
Assay Explanation: Binding affinity opioid receptor
Report as a plain number; the unit µM is understood.

INSERT INTO assay_data (structure_notation, assay_value) VALUES
  ('Cc1cc(O)cc(C)c1[C@H](C)[C@H](N)C(=O)N[C@H](C)C(=O)N[C@@H](Cc1ccccc1)C(=O)N[C@@H](CC(=O)O)C(=O)N[C@H](C(=O)N[C@H](C(=O)NCC(N)=O)C(C)C)C(C)C', 17.1);

"Cc1cc(O)cc(C)c1[C@H](C)[C@H](N)C(=O)N[C@H]1C(=O)NCC(=O)N[C@@H](Cc2ccccc2)C(=O)N[C@@H](C(=O)O)C(C)(C)SSC1(C)C" has a reported IC50 of 0.722
